// data source = ChEMBL document CHEMBL4130405

- protocol-summary: Cytotoxicity against mouse BV2 cells assessed as cell viability at 20 uM by MTT assay relative to control
- Type: cell-based, BV-2
- condition-notes: read-out: Activity
property-measured: viability at 20 µM (%)
Response body: numeric value in %, unit text excluded.

{"columns": ["compound", "viability at 20 µM (%)"],
 "data": [
  ["CC(C)CC(=O)O[C@@H]1OC=C(CO[C@@H]2O[C@H](CO)[C@@H](O)[C@H](O)[C@H]2O)[C@H]2C[C@H](O)[C@](O)(CO)[C@@H]12", 103],
  ["C=C1[C@@H]2O[C@@H](OC)[C@@H]3[C@H](CC[C@H]13)O2", 104],
  ["C=C1[C@@H]2O[C@@H](OC)[C@@H]3[C@@H](O2)[C@@H](O)C[C@H]13", 36]
]}

Lab note: CNC(=N)NCCC[C@H](N)C(=O)O [TILARGININE] gave viability at 20 µM of 120

Lab note: `CC(C)CC(=O)O[C@@H]1OC=C(CO[C@@H]2O[C@H](CO)[C@@H](O)[C@H](O)[C@H]2OC(=O)/C=C/c2ccc(O)cc2)[C@H]2CC[C@](O)(CO)[C@@H]12` gave viability at 20 µM of 102

Lab note: `CC(C)CC(=O)O[C@@H]1OC=C(CO[C@@H]2O[C@H](CO)[C@@H](O)[C@H](O)[C@H]2OC(=O)/C=C\c2ccc(O)cc2)[C@H]2CC[C@](O)(CO)[C@@H]12` gave viability at 20 µM of 103

Lab note: CCC(C)C(=O)O[C@@H]1OC=C(CO[C@@H]2O[C@H](CO)[C@@H](O)[C@H](O)[C@H]2OC(=O)/C=C/c2ccc(O)cc2)[C@H]2CC[C@](O)(CO)[C@@H]12 (some centres undefined) gave viability at 20 µM of 136

Lab note: `CC(=O)OC[C@@]1(O)CC[C@@H]2C(CO[C@@H]3O[C@H](CO)[C@@H](O)[C@H](O)[C@H]3OC(=O)/C=C\c3ccc(O)cc3)=CO[C@@H](OC(=O)CC(C)C)[C@@H]21` gave viability at 20 µM of 130

Lab note: `CC(=O)OC[C@@]1(O)CC[C@@H]2C(CO[C@@H]3O[C@H](CO)[C@@H](O)[C@H](O)[C@H]3OC(=O)/C=C/c3ccc(O)cc3)=CO[C@@H](OC(=O)CC(C)C)[C@@H]21` gave viability at 20 µM of 143
